Listed here are molecules together with their documented half-life.
# Assay details: Chemical stability assessed as half life of hydrolysis at pH 4
# Type: physicochemical
# Setup conditions: buffer

{"Molecule": "COC(=O)NC(Cc1ccc(NC(=N)N)cc1)P(=O)(Oc1ccccc1)Oc1ccccc1 (configuration not stated)", "half-life": "> 14 days"}
{"Molecule": "COC(=O)NC(Cc1ccc(NC(=N)N)cc1)P(=O)(Oc1ccc(NC(C)=O)cc1)Oc1ccc(NC(C)=O)cc1 (configuration not stated)", "half-life": "> 14 days"}

====

# Organism: Homo sapiens
# Assay details: Selectivity index, ratio of IC50 for human thrombin to IC50 for human uPA

{"Molecule": "N=C(N)NCCCC(NC(=O)OCc1ccccc1)P(=O)(Oc1ccccc1)Oc1ccccc1 (centres undefined)", "Ratio IC50": 0.9}
{"Molecule": "CC(=O)Nc1ccc(OP(=O)(Oc2ccc(NC(C)=O)cc2)C(Cc2ccc(NC(=N)N)cc2)NC(=O)OCc2ccccc2)cc1 (centres undefined)", "Ratio IC50": 90}
{"Molecule": "CC(=O)Nc1ccc(OP(=O)(Oc2ccc(NC(C)=O)cc2)C(Cc2ccc(NC(=N)N)cc2)NS(C)(=O)=O)cc1 (centres undefined)", "Ratio IC50": 700}
{"Molecule": "N=C(N)c1ccc(CCC(NC(=O)OCc2ccccc2)P(=O)(Oc2ccccc2)Oc2ccccc2)cc1 (centres undefined)", "Ratio IC50": 20}

====

Listed here are compounds together with their documented half-life.
# Assay details: Chemical stability assessed as half life of hydrolysis at pH 1
# Type: physicochemical
# Setup conditions: buffer
Recorded endpoint: half-life (h)

{"Compound": "COC(=O)NC(Cc1ccc(NC(=N)N)cc1)P(=O)(Oc1ccc(NC(C)=O)cc1)Oc1ccc(NC(C)=O)cc1 (configuration not stated)", "Result qualifier": "=", "Reported result": 35}
{"Compound": "COC(=O)NC(Cc1ccc(NC(=N)N)cc1)P(=O)(Oc1ccccc1)Oc1ccccc1 (configuration not stated)", "Result qualifier": ">", "Reported result": 336}

====

# Assay details: Stability in human plasma after 3 hrs
# Format: ADME, cell-free
# Setup conditions: read-out: Stability

{"Molecule": "COC(=O)NC(Cc1ccc(NC(=N)N)cc1)P(=O)(Oc1ccc(NC(C)=O)cc1)Oc1ccc(NC(C)=O)cc1 (configuration not stated)", "remaining at 3 h, %": 81}
{"Molecule": "COC(=O)NC(Cc1ccc(NC(=N)N)cc1)P(=O)(Oc1ccccc1)Oc1ccccc1 (configuration not stated)", "remaining at 3 h, %": 63}

====

# Measured target: Coagulation factor X (Homo sapiens)
# Sequence (P00742 41-179 limits assumed): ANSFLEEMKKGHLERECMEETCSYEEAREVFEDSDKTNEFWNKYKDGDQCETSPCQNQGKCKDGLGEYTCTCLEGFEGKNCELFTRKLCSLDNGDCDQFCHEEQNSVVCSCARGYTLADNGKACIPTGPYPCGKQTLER
# Sequence (P00742 235-488 limits assumed): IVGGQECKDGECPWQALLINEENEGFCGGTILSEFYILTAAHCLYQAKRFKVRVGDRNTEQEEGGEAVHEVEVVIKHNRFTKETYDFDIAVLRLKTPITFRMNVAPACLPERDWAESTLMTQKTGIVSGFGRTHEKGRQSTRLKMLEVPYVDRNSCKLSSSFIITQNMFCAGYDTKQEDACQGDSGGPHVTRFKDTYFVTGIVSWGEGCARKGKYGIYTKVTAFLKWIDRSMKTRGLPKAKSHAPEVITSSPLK
pKi: −log10 of the molar value.

{"Input smiles": "N=C(N)Nc1ccc(CNC(=O)OCc2ccccc2)cc1", "pKi": "< 3.00"}

====

Test system Urokinase-type plasminogen activator (Rattus norvegicus, UniProt P29598), IC50 listed for each of the compounds.

{"Compound": "COC(=O)NC(Cc1ccc(NC(=N)N)cc1)P(=O)(Oc1ccc(NC(C)=O)cc1)Oc1ccc(NC(C)=O)cc1 (configuration not stated)", "IC50 [µM]": 0.0245}
{"Compound": "COC(=O)NC(Cc1ccc(NC(=N)N)cc1)P(=O)(Oc1ccccc1)Oc1ccccc1 (configuration not stated)", "IC50 [µM]": 0.0195}

====

Listed here are compounds together with their documented logD.
# Assay details: Distribution coefficient, log D in octanol and phosphate buffer saline at pH 7.4
# Format: physicochemical
# Setup conditions: octanol/phosphate buffered saline
Recorded endpoint: logD

{"Compound": "COC(=O)NC(Cc1ccc(NC(=N)N)cc1)P(=O)(Oc1ccc(NC(C)=O)cc1)Oc1ccc(NC(C)=O)cc1 (configuration not stated)", "Reported result": -0.08}
{"Compound": "COC(=O)NC(Cc1ccc(NC(=N)N)cc1)P(=O)(Oc1ccccc1)Oc1ccccc1 (configuration not stated)", "Reported result": 1.1}
